From: PubChem BioAssay

Target: Beta-adrenergic receptor kinase 1 (Homo sapiens)
Assay: GRK2 binders displacing RNA aptamer, biochemical, validation, human GRK2, bead flow cytometry (AID 488806)
Conditions: bead-bound GRK2, FAM-aptamer displacement, at 10 µM, stronger effect = higher value
Quick list: aptamer binding inhibition per entry.
Give the quantity in %, number only.

Recorded aptamer binding inhibition, per entry:
compound | aptamer binding inhibition (%)
COc1cc(C(=O)OCCCN(C)C)cc(OC)c1OC | -2
COc1ccc(-c2nc(C)c(C(C)=O)n2O)cc1OC | 2
COc1cc(Cl)cc2c1Sc1ccccc1/C2=C/CCN(C)C | -8
COc1ccc2c(CCNC(=O)c3ccc([N+](=O)[O-])cc3)c[nH]c2c1 | 3
CC(=O)Nc1ccc(OS(=O)(=O)c2c(C)cc(C)cc2C)cc1 | -1

Enquiry: Hello, I am looking for reported aptamer binding inhibition with Beta-adrenergic receptor kinase 1 (Homo sapiens) for Cn1c2ccc(CC(=O)O)cc2c2cc(CC(=O)O)ccc21 . Could you help?
Return: 3

Enquiry: Item: O=C1NCC2=C1C(c1ccccc1)Nc1ccccc1N2 (stereo unspecified)
Return: 1

Enquiry: And for CC(=O)OCC(=O)[C@H]1CC[C@H]2[C@@H]3CC=C4C[C@@H](O)CC[C@]4(C)[C@H]3CC[C@]12C ?
Return: 0

Enquiry: Would you mind doing COc1cc2c3c(c1)C1(C(=O)N3C(C)(C)C=C2C)C(C#N)=C(N)Oc2cc(C)oc(=O)c21 (stereo unspecified) as well?
Return: -1

Enquiry: // same read-out, input: Nc1cccc2c1nnn2C1OC(CO)C(O)C(O)C1O (stereo unspecified)
Return: 0

Enquiry: And the next one, CC(=O)Oc1ccc(C(=O)O)cc1OC(C)=O ?
Return: 4
